Target: T1, human CTLA4 (CTLA-4), full-length, on CHO cells (human, UniProt P16410 36-223)
T1 construct: also called huCTLA4
T1 sequence (P16410 36-223): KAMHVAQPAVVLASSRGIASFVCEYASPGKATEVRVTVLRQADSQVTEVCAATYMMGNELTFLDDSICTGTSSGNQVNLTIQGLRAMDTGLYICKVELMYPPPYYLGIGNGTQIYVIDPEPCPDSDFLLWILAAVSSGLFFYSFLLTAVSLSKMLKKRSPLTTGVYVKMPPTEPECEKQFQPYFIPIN
Assay: flow cytometry, CHO cells stably expressing CTLA4
The reader will find reported MFI at 33.3 nM values listed item by item below.
Provide the measurement as a number trailed by its unit.

Worked set:
binder	value-reported
variant CD80 IgV-Fc E35D/D46V/M47L/V68M (Fc fusion, not shown: small tags and cut ends; a dimerising Fc or GST) VIHVTKEVKEVATLSCGHNVSVEELAQTRIYWQKDKKMVLTMMSGVLNIWPEYKNRTIFDITNNLSIMILALRPSDEGTYECVVLKYEKDAFKREHLAEVTLSVKAD	34300 MFI
variant CD80 IgV-Fc E35D/M47L/V68M (Fc fusion, not shown: small tags and cut ends; a dimerising Fc or GST) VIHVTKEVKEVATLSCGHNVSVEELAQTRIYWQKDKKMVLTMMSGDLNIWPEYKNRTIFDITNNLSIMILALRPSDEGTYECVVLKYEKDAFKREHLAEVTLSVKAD	28600 MFI
variant CD80 IgV-Fc E35D/D46V/M47L/V68M/L85Q (Fc fusion, not shown: small tags and cut ends; a dimerising Fc or GST) VIHVTKEVKEVATLSCGHNVSVEELAQTRIYWQKDKKMVLTMMSGVLNIWPEYKNRTIFDITNNLSIMILALRPSDEGTYECVVQKYEKDAFKREHLAEVTLSVKAD	26200 MFI

Next item in the queue.
I would be grateful if you could share the reported MFI at 33.3 nM for variant CD80 IgV-Fc E35D/M47L/L85Q (Fc fusion, not shown: small tags and cut ends; a dimerising Fc or GST) VIHVTKEVKEVATLSCGHNVSVEELAQTRIYWQKDKKMVLTMMSGDLNIWPEYKNRTIFDITNNLSIVILALRPSDEGTYECVVQKYEKDAFKREHLAEVTLSVKAD .
12900 MFI

Values compiled from patent US20210130436A1.
